Study target: Cathepsin D (Homo sapiens)
Sequence (P07339 65-412, species assumed): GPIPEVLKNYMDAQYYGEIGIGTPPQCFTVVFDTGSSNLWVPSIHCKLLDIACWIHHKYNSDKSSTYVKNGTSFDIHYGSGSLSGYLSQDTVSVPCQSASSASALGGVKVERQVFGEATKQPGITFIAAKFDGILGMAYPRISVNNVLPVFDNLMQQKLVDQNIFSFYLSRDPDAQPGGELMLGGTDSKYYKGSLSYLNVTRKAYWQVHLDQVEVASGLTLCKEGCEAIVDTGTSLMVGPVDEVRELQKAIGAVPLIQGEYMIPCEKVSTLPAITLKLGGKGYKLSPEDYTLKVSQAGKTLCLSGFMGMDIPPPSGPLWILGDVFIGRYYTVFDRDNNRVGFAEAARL
pIC50: −log10 of the molar value.
Outcome measure: pIC50

Please review the following examples before continuing.
Compound: COc1cnc2c(Nc3ccc4c(c3)[C@@]3(CCSC(N)=N3)c3cc(C5=CCCOC5)ncc3O4)nccc2c1 [Example 34]
pIC50: 3.47

Compound: COc1cnc2c(Nc3ccc4c(c3)[C@@]3(CCSC(N)=N3)c3cc(-c5ccnc(OC(C)C)c5)nc(F)c3O4)nccc2c1 [Example 40]
pIC50: 3.40

Compound: COc1cnc2c(Nc3ccc4c(c3)[C@@]3(CCOC(N)=N3)c3cc(C5CC5)ncc3O4)nccc2n1 [Example 42]
pIC50: 3.40

(a) COc1cnc2c(Nc3ccc4c(c3)[C@@]3(CCOC(N)=N3)c3cc(C5CC5)ncc3O4)nccc2c1 [Example 38]
(b) COc1cnc2c(Nc3ccc4c(c3)[C@@]3(CCOC(N)=N3)c3cc(C(C)C)ncc3O4)nccc2c1 [Example 36]
[in] Compare a and b by numeric pIC50 and name the larger one. Please identify the chosen entry by its label.
[out] b

---

Quick record of pIC50 values for BACE 1 (beta secretase enzyme) (Homo sapiens, UniProt P56817).
pIC50: −log10 of the molar value.
Outcome measure: pIC50

Example entries begin here.
Molecule: COc1cnc2c(Nc3ccc4c(c3)[C@@]3(CCOC(N)=N3)c3cc(Cl)nc(F)c3O4)nccc2c1 [Example 35]
pIC50: 7.01
--
Molecule: COc1cnc2c(Nc3ccc4c(c3)[C@@]3(CCOC(N)=N3)c3cc(C5=CCOCC5)ncc3O4)ccnc2c1 [Example 33]
pIC50: 7.71
--
Molecule: COc1cnc2c(Nc3ccc4c(c3)[C@@]3(CCSC(N)=N3)c3cc(-c5ccnc(OC(C)C)c5)nc(F)c3O4)nccc2c1 [Example 40]
pIC50: 7.81
--
Molecule: COc1cnc2c(Nc3ccc4c(c3)[C@@]3(CCSC(N)=N3)c3cc(C5=CCOCC5)nc(F)c3O4)nccc2c1 [Example 32]
pIC50: 8.36
--
Molecule: COc1cnc2c(Nc3ccc4c(c3)[C@@]3(CCOC(N)=N3)c3cc(C5=CCOCC5)ncc3O4)nccc2c1 [Example 43]
pIC50: 7.83

(I) C=C(C)c1cc2c(cn1)Oc1ccc(Nc3nccc4cc(OC)cnc34)cc1[C@@]21CCOC(N)=N1 [Example 37]
(II) COc1cnc2c(Nc3ccc4c(c3)[C@@]3(CCSC(N)=N3)c3cc(-c5cncc(F)c5)nc(F)c3O4)nccc2c1 [Example 41]
[in] Select one: I or II . Criterion: greater recorded pIC50. Identify your pick by its label.
[out] II
(II: 8.49, I: 7.75)

---

Observed pIC50 values for UniProt:P07339 are listed in what follows.
pIC50: −log10 of the molar value.
Outcome measure: pIC50

Structure as smiles: COc1cnc2c(Nc3ccc4c(c3)[C@@]3(CCSC(N)=N3)c3cc(C5=CCCOC5)nc(F)c3O4)nccc2c1
Outcome measure: pIC50
Readout number: 3.50
--
Structure as smiles: C=C(C)c1cc2c(cn1)Oc1ccc(Nc3nccc4cc(OC)cnc34)cc1[C@@]21CCOC(N)=N1
Outcome measure: pIC50
Readout number: 3.26
--
Structure as smiles: COc1cnc2c(Nc3ccc4c(c3)[C@@]3(CCOC(N)=N3)c3cc(Cl)nc(F)c3O4)nccc2c1
Outcome measure: pIC50
Readout number: 3.40
